This collection of values is drawn from paper PMC11931385.

Molecular target: T1, Rb^P S751Y (human, UniProt P06400 380-788, S751Y)
T1 construct: also called variant 72
T1 sequence (looked up): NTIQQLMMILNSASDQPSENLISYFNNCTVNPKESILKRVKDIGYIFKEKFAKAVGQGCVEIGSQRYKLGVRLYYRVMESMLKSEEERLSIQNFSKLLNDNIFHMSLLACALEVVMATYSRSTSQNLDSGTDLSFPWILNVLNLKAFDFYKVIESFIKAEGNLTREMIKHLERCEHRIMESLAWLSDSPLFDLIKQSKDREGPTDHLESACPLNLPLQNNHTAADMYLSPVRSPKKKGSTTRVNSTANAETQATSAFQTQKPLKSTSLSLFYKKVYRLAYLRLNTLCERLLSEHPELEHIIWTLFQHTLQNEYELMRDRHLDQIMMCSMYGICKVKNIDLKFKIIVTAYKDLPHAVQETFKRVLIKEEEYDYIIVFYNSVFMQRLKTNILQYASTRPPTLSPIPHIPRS
Assay: fluorescence polarisation; 37 °C, after the 25 °C reading ramped over 7 min to 37 °C and 2 min incubation; unlabeled Rb^P against 1.5 nM TMR-E2F1^TD or 7.5 nM TMR-E7^LxCxE; 25 mM Tris pH 8.0, 200 mM NaCl, 1 mM DTT, 0.1% Tween-20; apparent Kd
Details: both partners purified
No end group written: not given here. TMR = tetramethyl rhodamine dye
experimental_endpoint: Kd (nM)
// note: answer is a bare numeric in nM

Q: Please report the recorded Kd for DLYCYEQLN (also: TMR label, position not given here, source: synthetic peptide, bought: GenScript) [TMR-E7^LxCxE, LxCxE peptide of the E7 oncoprotein from HPV] .
A: 420

Q: Please report the recorded Kd for {TMR}-GEGIRDLFDCDFGDLTPLD (also called E2F^TD; source: synthetic peptide, bought: GenScript) [TMR-E2F1^TD, peptide of the E2F1 transactivation domain] .
A: 127
